Source: ChEMBL document CHEMBL1136605

IC50 listing for selected molecules.
# target-desc: cGMP-specific 3',5'-cyclic phosphodiesterase (Homo sapiens)
The response must be a number in nM with no trailing unit.

{"molecule": "O=C(O)CCCC(=O)Nc1cccc(-c2ccc(C(=O)N3CCc4c([nH]c5ccccc45)C3c3ccc4c(c3)OCO4)o2)c1 (stereo not drawn)", "IC50 [nM]": 95}

# ---- query molecule ----
**Query** Param readout= IC50; system= cGMP-specific 3',5'-cyclic phosphodiesterase (Homo sapiens); entry= O=C(c1ccc(-c2ccc(Cl)cc2[N+](=O)[O-])o1)N1CCc2c([nH]c3ccccc23)[C@H]1c1ccc2c(c1)OCO2 ; returns value.
**Result** 67
